- TESTED TARGET: full-length murine Importin α1 (mImpα1) (mouse, UniProt P52293 1-529)
- ASSAY SUMMARY: fluorescence polarisation; fluorescein-labelled pol β NLS peptide against the concentration of the Impα construct; apparent dissociation constants; as in ref. 56
- ASSAY SETUP: both partners purified
Ends that are not written are not given here. * marks the point of attachment. FITC = O=C1OC2(c3ccc(O)cc3Oc3cc(O)ccc32)c2ccc(NC(=S)*)cc21
READOUT NAME: Kd
Express the reported value numerically, then name its unit.

Look at this binder and give its reported Kd. SKRKAPQETLNGGK(FITC) [fluorescein-labeled pol β NLS peptide SKRKAPQETLNGG-Lys(FITC)] 61.8 µM
